Source listed as patent US8778939B2.

Target: 6His-Tev-LRRK2 (1326-2527) (Homo sapiens)
Construct: A LRRK2 cDNA encoding residues 1326-2527 was received from Dundee University; made in house; host or cells: Spodoptera frugiperda (Sf9) insect cells, baculovirus
Sequence (Q5S007 1326-2527): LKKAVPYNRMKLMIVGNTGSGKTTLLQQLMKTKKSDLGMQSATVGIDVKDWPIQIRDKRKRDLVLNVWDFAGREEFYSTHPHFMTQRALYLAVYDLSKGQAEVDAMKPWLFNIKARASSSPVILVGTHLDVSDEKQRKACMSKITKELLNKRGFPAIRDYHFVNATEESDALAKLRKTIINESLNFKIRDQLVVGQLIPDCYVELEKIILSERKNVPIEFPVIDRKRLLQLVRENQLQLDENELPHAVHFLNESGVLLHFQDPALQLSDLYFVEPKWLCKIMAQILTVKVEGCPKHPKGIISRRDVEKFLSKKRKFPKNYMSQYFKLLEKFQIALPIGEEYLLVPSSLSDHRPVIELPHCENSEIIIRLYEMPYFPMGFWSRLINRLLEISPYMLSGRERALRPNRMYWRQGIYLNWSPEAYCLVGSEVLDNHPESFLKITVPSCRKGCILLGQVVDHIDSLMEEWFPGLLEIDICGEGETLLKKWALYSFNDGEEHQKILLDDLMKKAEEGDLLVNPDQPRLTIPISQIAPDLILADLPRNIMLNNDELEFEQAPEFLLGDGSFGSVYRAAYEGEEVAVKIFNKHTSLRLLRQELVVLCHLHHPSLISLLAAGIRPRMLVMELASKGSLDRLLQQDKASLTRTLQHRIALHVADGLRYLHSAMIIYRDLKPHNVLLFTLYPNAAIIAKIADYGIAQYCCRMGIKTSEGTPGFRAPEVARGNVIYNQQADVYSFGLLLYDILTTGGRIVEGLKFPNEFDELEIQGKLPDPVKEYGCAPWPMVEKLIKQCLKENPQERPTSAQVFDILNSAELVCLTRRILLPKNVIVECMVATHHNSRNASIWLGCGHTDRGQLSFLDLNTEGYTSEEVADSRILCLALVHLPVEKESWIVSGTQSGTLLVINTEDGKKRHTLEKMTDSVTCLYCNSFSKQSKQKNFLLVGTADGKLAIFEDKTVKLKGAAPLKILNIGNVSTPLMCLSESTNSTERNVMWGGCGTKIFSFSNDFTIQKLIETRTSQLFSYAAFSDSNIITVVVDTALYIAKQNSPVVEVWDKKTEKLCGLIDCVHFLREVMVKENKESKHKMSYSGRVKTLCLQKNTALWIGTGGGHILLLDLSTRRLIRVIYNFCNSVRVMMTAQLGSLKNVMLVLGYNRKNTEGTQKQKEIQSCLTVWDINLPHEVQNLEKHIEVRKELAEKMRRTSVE
Assay: LRRK2 AlphaScreen desensitised protein substrate assay
Type: biochemical
Conditions: excess of ATP present (2 mM ATP); read-out: pIC50 in the LRRK2 alphascreen desensitised protein substrate assay (converted)
reportedEndpoint: IC50

Worked cases, IC50 given:
Enquiry: For the compound Cn1cc(-c2ccc(OCc3ccc(F)cc3)c(C(=O)Nc3ccnnc3)c2)cn1 [Example 94] , give its measured IC50 value.
Return: ≤ 20 µM

Enquiry: For the compound O=C(Nc1cccnc1F)c1cc(-c2ccncc2)ccc1OCc1ccccc1 [Example 54] , give its measured IC50 value.
Return: ≤ 20 µM

Enquiry: For the compound Cn1nccc1-c1ccc(OCc2ccc(F)cc2)c(C(=O)Nc2cccnc2)c1 [Example 95] , give its measured IC50 value.
Return: ≤ 20 µM

Enquiry: For the compound NCCOCCOc1ccc(OCc2ccccc2)c(C(=O)Nc2cccnc2)c1 [Example 49] , give its measured IC50 value.
Return: ≤ 20 µM

Enquiry: For the compound O=C(Nc1cccnc1)c1cc(S(=O)(=O)N2CCOCC2)ccc1OCc1ccccc1 [Example 41] , give its measured IC50 value.
Return: > 25.1 µM

***
Enquiry: For the compound O=C(Nc1ccnnc1)c1cc(-c2cn[nH]c2)ccc1OCc1ccc(F)c(F)c1 [Example 108] , give its measured IC50 value.
Return: ≤ 20 µM

Enquiry: For the compound O=C(Nc1cnoc1)c1cc(-c2ccncc2)ccc1OCc1ccccc1 [Example 63] , give its measured IC50 value.
Return: ≤ 20 µM

Enquiry: For the compound O=C(Nc1cccnc1)c1cc(-c2ccncc2)ccc1OCc1ccc(F)c(F)c1 [Example 109] , give its measured IC50 value.
Return: ≤ 20 µM

Enquiry: For the compound O=C(Nc1cccnc1)c1cc(S(=O)(=O)N2CCCCC2)ccc1OCc1ccccc1 [Example 42] , give its measured IC50 value.
Return: > 25.1 µM
